assay: Drug uptake in anesthetized cynomolgus monkey brain occipital lobe after 125 mins postinjection; type: ADME, organism-based, Macaca fascicularis; settings: in vivo
Just a reminder that ties go to F: only Drug uptake strictly below 3 counts as T.

Known results for compounds:
{"COMPOUND": "O=C(OCCC[18F])C1C2CCC(CC1c1cccc(/C=C\\Br)c1)N2 (stereo not given)", "QUALITATIVE LABEL": "F"}
{"COMPOUND": "O=C(OCC[18F])C1C2CCC(CC1c1ccc(/C=C\\I)cc1)N2 (stereo not given)", "QUALITATIVE LABEL": "T"}

Could you now consider this next compound?
is_below(Drug uptake, 3) for O=C(OCC[18F])C1C2CCC(CC1c1cccc(/C=C\I)c1)N2 (stereo not given) ? T
